Tested on: haematopoietic & lymphoid tumors (13 cell lines)
experimental.details: CellTiter-Glo Viability Assay, haematopoietic & lymphoid tumors
Type: cell-based
condition.notes: Homo sapiens; MOLT-4 cell line; inhibition of cancer cell proliferation; read-out: Haematopoietic & Lymphoid tumors, EC50 (μM) MOLT-4
Give EC50 for every item shown.

Specify EC50 for CN1CCN(c2ccc(NC(=O)c3n[nH]c4ccc(-c5cncc(NC(=O)C6CC6)c5)cc34)cn2)CC1 and stop.
0.503 µM

Specify EC50 for O=C1CCc2cccc(c2)-c2cncc3[nH]c(nc23)-c2n[nH]c3ccc(cc23)-c2cncc(c2)N1 and stop.
> 3.5 µM

Specify EC50 for CN1CCCn2cc(nn2)-c2nccc3[nH]c(nc23)-c2n[nH]c3ccc(cc23)-c2cncc(c2)C1 and stop.
> 10 µM

Specify EC50 for Cn1ncc(-c2ccc3cnc(NC(=O)c4cccc(CN5CCCC5)c4)cc3c2)c1CN1CCCCC1 and stop.
0.562 µM
